System: SNU886
experiment.description: Cell proliferation assay (Alamar Blue)
Assay type: cell-based
recorded.conditions: SNU886 liver cancer cell line; 6 days culture
pIC50: −log10 of the molar value.
Measured pIC50 accompanies every entry in the list below.

Fill in: pIC50 of `Cc1ccc(F)c(NC(=O)Nc2ccc(-c3cccc4[nH]nc(NC(=O)CCCCCNC(=O)C[C@H](N)C(=O)N[C@@H](CCC(=O)O)C(=O)O)c34)cc2)c1` is ___
< 4.00

So what's the measured pIC50 for this one? `Cc1ccc(F)c(NC(=O)Nc2ccc(-c3cccc4[nH]nc(NC(=O)CCCCCNC(=O)C[C@H](N)C(=O)O)c34)cc2)c1`
< 4.00

Consider the compound `Cc1ccc(F)c(NC(=O)Nc2ccc(-c3cccc4[nH]nc(NC(=O)CCCCCCCCCCCNC(=O)C[C@H](N)C(=O)N[C@@H](CCC(=O)N[C@@H](CCC(=O)N[C@@H](CCC(=O)N[C@@H](CCC(=O)N[C@@H](CCC(=O)N[C@@H](CCC(=O)N[C@@H](CCC(=O)N[C@@H](CCC(=O)N[C@@H](CCC(=O)O)C(=O)O)C(=O)O)C(=O)O)C(=O)O)C(=O)O)C(=O)O)C(=O)O)C(=O)O)C(=O)O)c34)cc2)c1` and give its measured pIC50.
< 4.00
